# System: bronchoconstriction induced by PAF
# Assay Explanation: Effect on bronchoconstriction induced by platelet activating factor (PAF) in guinea pigs (Konzett-Rossler method)
# Type: in vivo, guinea pig (male Hartley)
# Recorded Conditions: Cavia porcellus, po, 30 mg/kg orally 1 hour before PAF (1 μg/kg i.v.), suspended in 5% gum arabic, recorded for 15 minutes, male Hartley guinea pigs
Use inhibition in vivo at 30 mg/kg to assign classes; range list: low interval = under 50%, middle interval = from 50% up to 70%, high interval = 70% and over

Worked examples follow.
1) NS(=O)(=O)CC(CSc1ccc2nccn2n1)c1ccccc1 (stereo not drawn) [Example 33] ... middle interval
2) NS(=O)(=O)CCCSc1ccc2ncc(Cl)n2n1 [Example 43] ... middle interval

Q. # bin label for C[C@H](COc1ccc2nccn2n1)CS(N)(=O)=O [Example 40]
A. middle interval

Q. # bin label for NS(=O)(=O)CCC(Sc1ccc2nccn2n1)c1ccccc1 (stereo not drawn) [Example 34]
A. low interval

Q. # bin label for NS(=O)(=O)CCSc1ccc2nccn2n1 [Example 26]
A. low interval

Q. # bin label for NS(=O)(=O)CCCOc1ccc2nccn2n1 [Example 41]
A. middle interval

Q. # bin label for CN(C)S(=O)(=O)CCCSc1ccc2nccn2n1 [Example 9]
A. middle interval

Q. # bin label for CC(CSc1ccc2nccn2n1)CS(N)(=O)=O (stereo not drawn) [Example 31]
A. high interval

Q. # bin label for Cn1cccc1CCNS(=O)(=O)CCCSc1ccc2nccn2n1 [Example 20]
A. low interval

Q. # bin label for CCC(COc1ccc2nccn2n1)CS(N)(=O)=O (stereo not drawn) [Example 42]
A. middle interval

###

# Test system: bronchoconstriction induced by PAF
# Assay Explanation: Effect on bronchoconstriction induced by platelet activating factor (PAF) in guinea pigs (Konzett-Rossler method)
# Format: in vivo, guinea pig (male Hartley)
# Recorded Conditions: Cavia porcellus, po, 30 mg/kg orally 1 hour before PAF (1 μg/kg i.v.), suspended in 5% gum arabic, recorded for 15 minutes, male Hartley guinea pigs
Measured Quantity: inhibition in vivo at 30 mg/kg
Please make sure the unit comes right after the number.

// worked examples, inhibition in vivo at 30 mg/kg included
1) NS(=O)(=O)CCCSc1ccc2nccn2n1 ... 71%
2) CC(C)(CSc1ccc2nccn2n1)CS(N)(=O)=O ... 99%
3) O=S(=O)(CCSc1ccc2nccn2n1)NC1CC1 ... 47%
4) CCC(CSc1ccc2nccn2n1)CS(N)(=O)=O (centres unmarked) ... 80%
5) C[C@@H](CSc1ccc2nccn2n1)CS(N)(=O)=O ... 79%

Q. Requested field: inhibition in vivo at 30 mg/kg. Item: `CCC(CC)(COc1ccc2nccn2n1)CS(N)(=O)=O`
A. 90%

Q. Requested field: inhibition in vivo at 30 mg/kg. Item: `NS(=O)(=O)CCCCSc1ccc2nccn2n1`
A. 73%

Q. Requested field: inhibition in vivo at 30 mg/kg. Item: `CC(C)(COc1ccc2ncc(Cl)n2n1)CS(N)(=O)=O`
A. 50%

Q. Requested field: inhibition in vivo at 30 mg/kg. Item: `CC(C)(COc1ccc2nccn2n1)CS(N)(=O)=O`
A. 72%

Q. Requested field: inhibition in vivo at 30 mg/kg. Item: `O=S(=O)(CCCSc1ccc2nccn2n1)NCCc1cccnc1`
A. 41%

Q. Requested field: inhibition in vivo at 30 mg/kg. Item: `NS(=O)(=O)CCCCCSc1ccc2nccn2n1`
A. 51%
